// provenance: ChEMBL document CHEMBL3877248

The entries below come with measured inhibition values attached.
Target: Pyruvate kinase (Staphylococcus aureus (strain MRSA252)) (UniProt Q6GG09)
Sequence (Q6GG09 whole entry): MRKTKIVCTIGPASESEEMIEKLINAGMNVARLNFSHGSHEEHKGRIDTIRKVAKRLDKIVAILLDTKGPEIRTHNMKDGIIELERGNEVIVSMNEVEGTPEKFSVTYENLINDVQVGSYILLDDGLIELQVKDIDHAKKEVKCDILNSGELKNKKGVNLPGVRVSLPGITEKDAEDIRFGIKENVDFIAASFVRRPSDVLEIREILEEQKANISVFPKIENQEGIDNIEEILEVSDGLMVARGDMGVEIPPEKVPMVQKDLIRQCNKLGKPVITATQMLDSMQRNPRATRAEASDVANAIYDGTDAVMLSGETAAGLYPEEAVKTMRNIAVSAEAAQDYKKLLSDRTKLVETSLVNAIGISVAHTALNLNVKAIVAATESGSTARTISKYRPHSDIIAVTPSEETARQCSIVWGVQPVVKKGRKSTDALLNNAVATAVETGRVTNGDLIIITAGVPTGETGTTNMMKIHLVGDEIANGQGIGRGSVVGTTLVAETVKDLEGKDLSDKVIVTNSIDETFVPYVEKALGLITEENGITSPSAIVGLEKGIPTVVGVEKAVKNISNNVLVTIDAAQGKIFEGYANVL
Experiment: Inhibition of recombinant N-terminal His-tagged methicillin-resistant Staphylococcus aureus MRSA252 pyruvate kinase expressed in Escherichia coli BL21(DE3) at 1 uM using PEP as substrate measured after 5 mins by LDH-coupled assay relative to control
Conditions: Staphylococcus aureus subsp. aureus MRSA252
Use % as the unit, but write only the number.

O=C(/C=C/c1cc2ccc(Br)cc2[nH]1)c1cc2ccccc2[nH]1
38
O=C(Nc1nc2ccc(Br)cc2s1)c1ccccc1O
65

Prompt line: Supply recorded inhibition for "COc1ccc(Br)cc1-c1cccc(-c2cc3ccccc3[nH]2)n1" here.
Response line: 6

Prompt line: Supply recorded inhibition for "O=C(Nc1cc(Br)ccc1O)c1cc2ccccc2[nH]1" here.
Response line: 28

Prompt line: Supply recorded inhibition for "CN(C(=O)c1cc(Br)ccc1O)c1nc2ccc(Br)cc2s1" here.
Response line: 5
